assay: Biodistribution of technetium-labelled peptides; type: in vivo, CD1 mice; conditions: CD1, bone, iv, 80 ug/mouse, total radioactivity; 80 μg/mouse; 2 min; read-out: injected activity in Bone

molecule: CSCC[C@H](NC(=O)[C@H](Cc1ccccc1)NC(=O)[C@H](CC(C)C)NC(=O)[C@H](CCCCN)NC(=O)CCCN(CCN)CCn1nc(C)c(CC(=O)O)c1C)C(=O)N[C@@H](C)C(=O)N[C@@H](CC(C)C)C(=O)N[C@H](C(=O)N[C@@H](C)C(=O)N[C@@H](Cc1ccccc1)C(=O)N[C@@H](CC(C)C)C(=O)N[C@@H](CCCNC(=N)N)C(=O)N[C@@H](Cc1ccccc1)C(=O)N[C@@H](CC(C)C)C(=O)N[C@H](C(=O)O)[C@@H](C)O)C(C)C [^99mTc(CO)3-Pz^1-pepH2, metal not drawn]
tissue uptake at 2 min: 1.6 %ID/g
